Assay: HBV Replication Inhibition Assay: HBV replication inhibition by the compounds of this invention could be determined in cells infected or transfected with HBV, or cells with stably integrated HBV, such as HepG2.2.15 cells (Sells et al. 1987). In this example, HepG2.2.15 cells were maintained in cell culture medium containing 10% fetal bovine serum (FBS), Geneticin, L-glutamine, penicillin and streptomycin. HepG2.2.15 cells could be seeded in 96-well plates at a density of 40,000 cells/well and be treated with serially diluted compounds at a final DMSO concentration of 0.5% either alone or in combination by adding drugs in a checker box format. Cells were incubated with compounds for three days, after which medium was removed and fresh medium containing compounds was added to cells and incubated for another three days. At day 6, supernatant was removed and treated with DNase at 37° C. for 60 minutes, followed by enzyme inactivation at 75° C. for 15 minutes. Encapsidated HBV DNA was released from the virions and covalently linked HBV polymerase by incubating in lysis buffer (Affymetrix QS0010) containing 2.5 μg proteinase K at 50° C. for 40 minutes. HBV DNA was denatured by addition of 0.2 M NaOH and detected using a branched DNA (BDNA) QuantiGene assay kit according to manufacturer recommendation (Affymetrix). HBV DNA levels could also be quantified using qPCR, based on amplification of encapsidated HBV DNA extraction with QuickExtraction Solution (Epicentre Biotechnologies) and amplification of HBV DNA using HBV specific PCR probes that can hybridize to HBV DNA and a fluorescently labeled probe for quantitation. In addition, cell viability of HepG2.2.15 cells incubated with test compounds alone or in combination was determined by using CellTitre-Glo reagent according to the manufacturer protocol (Promega). The mean background signal from wells containing only culture medium was subtracted from all other samples, and percent inhibition at each compound concentration was calculated by normalizing to signals from HepG2.2.15 cells treated with 0.5% DMSO using equation E1.% inhibition=(DMSOave−Xi)/DMSOave×100% E1:where DMSOave is the mean signal calculated from the wells that were treated with DMSO control (0% inhibition control) and Xi is the signal measured from the individual wells. EC50 values, effective concentrations that achieved 50% inhibitory effect, were determined by non-linear fitting using Graphpad Prism software (San Diego, Calif.) and equation E2Y=Y min+(Y max−Y min)/(1+10(Log EC50−X)×HillSlope) E2:where Y represents percent inhibition values and X represents the logarithm of compound concentrations.
Details: HepG2.2.15
experimental readout: EC50

Any idea what its EC50 is? The molecule is "CC(C)(O)c1n[nH]c2c1CN(C(=O)Nc1cccc(Cl)c1)CC2" > 10000 nM
